molecular target: Zinc finger protein mex-5 (Caenorhabditis elegans) (UniProt Q9XUB2); experiment: MEX-5 zinc finger-RNA interaction blockers – biochemical, fluorescence polarization, C. elegans, cherry-picked, round 3, dose response (AID 493250); settings: purified MEX-5-MBP, FITC-TCR2 RNA fluorescence polarization
Sequence (Q9XUB2 whole entry, looked up): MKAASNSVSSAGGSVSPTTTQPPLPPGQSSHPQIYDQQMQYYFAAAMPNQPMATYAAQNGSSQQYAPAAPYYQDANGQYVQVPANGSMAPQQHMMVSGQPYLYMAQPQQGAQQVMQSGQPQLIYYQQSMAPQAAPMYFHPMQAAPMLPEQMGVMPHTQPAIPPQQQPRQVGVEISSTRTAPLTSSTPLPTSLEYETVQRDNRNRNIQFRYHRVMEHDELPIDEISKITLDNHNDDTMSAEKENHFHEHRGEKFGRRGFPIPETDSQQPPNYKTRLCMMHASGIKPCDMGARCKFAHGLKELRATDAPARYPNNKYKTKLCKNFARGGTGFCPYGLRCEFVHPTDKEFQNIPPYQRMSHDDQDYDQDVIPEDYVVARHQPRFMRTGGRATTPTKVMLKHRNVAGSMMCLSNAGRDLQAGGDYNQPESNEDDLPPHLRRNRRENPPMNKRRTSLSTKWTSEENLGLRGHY
Calls of active or inactive are those of the source.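 The calls were made as follows: active = signal decrease with fitted half-maximal dose at or below ten times the highest valid tested dose; inconclusive = poor fit, or flat fit at 30 to 70% inhibition; inactive = the rest.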
A correct response names exactly one class from active, inactive

Cc1ccc(C(=O)O)cc1-c1ccc(/C=C2\SC(=O)N(CC(=O)Nc3ccccc3)C2=O)o1 : active
CCOCCCn1c(=N)c(S(=O)(=O)c2ccccc2)cc2c(=O)n3cc(C)ccc3nc21 : active
CCOc1cc(/C=C2\CCCc3c2nc2ccccc2c3C(=O)O)ccc1OC : active

Please indicate how the test categorized "CCN(CC)c1ccc(/C=C(/C#N)c2nc3ccc(C)cc3[nH]2)c(OC(C)C)c1" .
active

Please indicate how the test categorized "COc1ccccc1/C=C/C=C1\Oc2c(ccc(O)c2CN(C)C)C1=O" .
active

Please indicate how the test categorized "COc1ccccc1/C=C1\SC(=S)N(CCC(=O)Nc2cc(C)on2)C1=O" .
inactive

###

target: Zinc finger protein mex-5 (Caenorhabditis elegans) (UniProt Q9XUB2); experiment: MEX-5 zinc finger-RNA interaction blockers – biochemical, fluorescence polarization, C. elegans, cherry-picked, round 3, dose response (AID 493250); details: purified MEX-5-MBP, FITC-TCR2 RNA fluorescence polarization
Calls of active or inactive are those of the source.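 The calls were made as follows: active = signal decrease with fitted half-maximal dose at or below ten times the highest valid tested dose; inconclusive = poor fit, or flat fit at 30 to 70% inhibition; inactive = the rest.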
A correct response names exactly one class from 1 (active), -1 (inactive)

Cc1nc2nc(-c3ccc(Cl)cc3)cn2nc1C : 1
CN1CC=C2C(C#N)=C(N)C(C#N)(C#N)C(Cc3ccccc3)C2C1 (stereo not given) : 1
COc1cccc(C2C=C(c3cccs3)Nc3ncnn32)c1OC (stereo not given) : -1
COC(=O)c1ccc2c(c1)SC1=C(CCCC1=O)N2 : 1
CCCC1=NN2C(=N)/C(=C\c3ccc(SCc4ccco4)o3)C(=O)N=C2S1 : 1

Please indicate how the test categorized CNC(=O)c1sc(N2N=C3/C(=C/c4ccccc4)CCCC3C2c2ccccc2)nc1C (stereo not given) .
1

Please indicate how the test categorized "C=CCn1c(=O)[nH]c2nc3cc(N=CN(C)C)c(C)cc3nc2c1=O" .
1

Please indicate how the test categorized "Cc1ccc(S(=O)(=O)c2cc3c(=O)n4ccccc4nc3n(C3CCCCC3)c2=N)cc1" .
-1

Please indicate how the test categorized CCOC(=O)C1C(=O)C=C(/C=C/c2ccc(N(C)C)cc2)CC1c1ccccc1 (stereo not given) .
1

###

target: Zinc finger protein mex-5 (Caenorhabditis elegans); experiment: MEX-5 zinc finger-RNA interaction blockers – biochemical, fluorescence polarization, C. elegans, cherry-picked, round 3, dose response (AID 493250); conditions: purified MEX-5-MBP, FITC-TCR2 RNA fluorescence polarization
The source made the active and inactive calls.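 The calls were made as follows: active = signal decrease with fitted half-maximal dose at or below ten times the highest valid tested dose; inconclusive = poor fit, or flat fit at 30 to 70% inhibition; inactive = the rest.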
A correct response names exactly one class from active, inactive

COc1ccc(-n2c(O)c(/C=N/NS(=O)(=O)c3cc(C)ccc3C)c3ccccc3c2=O)cc1OC : active
CCS(=O)(=O)C1=NN2C(=N)/C(=C\c3ccc(SCc4ccco4)o3)C(=O)N=C2S1 : active
O=C1C(Br)=Cc2cccc3cccc1c23 : active

Please indicate how the test categorized "Cc1ccc2c(c1)c1nc3ccccc3nc1n2C" .
active

Please indicate how the test categorized CCCC1C2CN(C(C)C)CC=C2C(C#N)=C(N)C1(C#N)C#N (stereo unspecified) .
active

Please indicate how the test categorized "COc1ccc(NS(=O)(=O)c2cccc(C(=O)NNC(=O)c3cc(S(N)(=O)=O)ccc3OC)c2)cc1" .
inactive

Please indicate how the test categorized "COc1ccc(NC(=O)c2cccc(-c3ccc(O)cc3)c2)cn1" .
active

Please indicate how the test categorized "COc1ccc(/C(O)=C/c2nc3ccccc3n(-c3ccccc3)c2=O)cc1" .
active

Please indicate how the test categorized "CNC(=O)c1cc2ccc(OC)cc2oc1=O" .
inactive

Please indicate how the test categorized "COc1ccc(OC)c(NC(=O)c2sc3nc(Cc4ccccc4)cc(C(F)(F)F)c3c2N)c1" .
active

Please indicate how the test categorized "Cc1cccc2c(N=Nc3ccccc3)c(O)[nH]c12" .
inactive

Please indicate how the test categorized "N=C1CCC(=N)c2c1c(O)c1ccccc1c2O" .
active

Please indicate how the test categorized "COc1ccc(Cl)cc1CN1CCN(c2nc(C)cc(C)c2C#N)CC1" .
active

Please indicate how the test categorized "Nc1nc(Cl)nc2ccc(Br)cc12" .
inactive

Please indicate how the test categorized "CCOC(=O)/C(=C/c1ccc(N2CCC(c3ccccc3)=N2)cc1)C(C)=O" .
active

Please indicate how the test categorized OCCCc1nc2n(n1)C(c1ccccc1Cl)C=C(c1cccs1)N2 (stereo unspecified) .
active

###

biological target: Zinc finger protein mex-5 (Caenorhabditis elegans) (UniProt Q9XUB2); assay: MEX-5 zinc finger-RNA interaction blockers – biochemical, fluorescence polarization, C. elegans, cherry-picked, round 3, dose response (AID 493250); conditions: purified MEX-5-MBP, FITC-TCR2 RNA fluorescence polarization
Active and inactive are the calls of the source.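 Rule for the calls: active = signal decrease with fitted half-maximal dose at or below ten times the highest valid tested dose; inconclusive = poor fit, or flat fit at 30 to 70% inhibition; inactive = the rest.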
measured_metric: AC50

Known results for compounds:
CCN1/C(=C/C=C/c2oc3ccc(-c4ccccc4)cc3[n+]2CC)Oc2ccc(-c3ccccc3)cc21 : 0.338 µM
O=[N+]([O-])c1ccccc1NC(=S)N/N=C/c1ccc(O)c(O)c1 : 10.4 µM
Cc1cc2c(C)nc(N/N=C/c3ccc([N+](=O)[O-])cc3)nc2o1 : 6.83 µM
CCCOc1cc(N(CC)CC)ccc1/C=C(/C#N)c1nc2ccc(C)cc2[nH]1 : 6.33 µM
O=C1C(Cl)=C(NC2CCCCC2)C(=O)N1c1ccc(Cl)cc1 : > 10 µM (inactive)
CCC(=O)Oc1ccc2c(c1)O/C(=C\c1ccco1)C2=O : 5.51 µM
CCN1C(=O)c2cccc3c(NC(=O)C4CCCCC4)ccc1c23 : 6.96 µM
COC(=O)C1=COC(C)C2CN3CCc4c([nH]c5ccccc45)C3CC12 (stereo unspecified) : 4.21 µM
Cn1c(O)c(N=Nc2ccc(F)cc2)c2ccccc21 : 1.75 µM
CCN(CC)Cc1c(O)ccc2c1O/C(=C\C=C\c1ccccc1)C2=O : 4.38 µM

Which AC50 value is on record for "Cc1cccc(N2C(=O)NC(=O)/C(=C/c3cc4c(cc3[N+](=O)[O-])OCO4)C2=O)c1" ?
9.86 µM
